test system: MDA-N; experiment: NCI tumour cell line growth inhibition, 48 h
Activity calls are given as the source filed them. Cut-off read from the data, not from the text of the source: active = GI50 up to about 1.1 µM and inactive = higher.
Response enum: active, inactive

Can you look up the reported call for O=C(O)C1CCCCC1C(=O)Nc1nc2ccccc2[nH]1 (stereo unspecified) for me? inactive

Can you look up the reported call for COc1cc(/C=C/C(=O)Oc2ccccc2)ccc1C(=O)O/C=C/c1ccccc1 for me? inactive

Can you look up the reported call for CC1(C)CCC[C@](C)([C@H]2CC[C@]3(C)[C@@H]2[C@H](O)C[C@@H]2[C@@]4(C)CC[C@H](O)C(C)(C)[C@@H]4[C@H](O)C[C@]23C)O1 for me? inactive

Can you look up the reported call for CC(=O)Oc1ccc2cc(Oc3ccc(Cl)cc3)c(=O)oc2c1 for me? inactive

Can you look up the reported call for COC(=O)[C@H]1[C@@H](C(C)C)O[C@@H](C(C)C)O[C@H]1C(F)(F)F for me? inactive

Can you look up the reported call for COc1cc(C2SC(C)C(=O)N2c2ccc(-c3csc(NS(=O)(=O)c4ccc(Cl)c(OC)c4)n3)cc2)ccc1O (stereo unspecified) for me? inactive

Can you look up the reported call for N#Cc1c(N2CCCC2)ncn(Cc2ccccc2)c1=S for me? inactive

Can you look up the reported call for CC1(C)CCC2=C(O1)/C(=N\Nc1ccc(F)cc1)c1ccccc1C2=O for me? inactive

Can you look up the reported call for CCP(=O)(CC)C(Cl)(Cl)C(O)C(Cl)(Cl)Cl (stereo unspecified) for me? inactive

Can you look up the reported call for Cc1nc2ccc(S(=O)(=O)O)cc2c(=O)n1-c1ccc(C(=O)NN2C(=O)C(Cl)C2c2cccs2)cc1 (stereo unspecified) for me? inactive

Can you look up the reported call for CC(=O)O[C@H]1C#C/C=C\C#CC[C@@H]2C(=O)N[C@@H]12 for me? inactive

Can you look up the reported call for Cn1c(=O)c2c(nc(NCCNc3nc4c(c(=O)n(C)c(=O)n4C)n3C)n2C)n(C)c1=O for me? inactive

Can you look up the reported call for Cc1ccc(/N=N/C(=N\c2ccc(F)cc2)c2ccc(N(CCC#N)CCC#N)cc2)cc1 for me? inactive

Can you look up the reported call for COc1ccccc1C(=O)N(C)c1ccc(Cl)c(C(=O)OC(C)C)c1 for me? inactive

Can you look up the reported call for CNc1ccc(C(=O)CC(O)CCC(C)C2OC(=O)CC(O)CC(=O)CC(O)CC(O)CC(O)CC(O)CC3(O)CC(O)C(C(=O)N4CCOCC4)C(CC(OC4OC(C)C(O)C(N)C4O)\C=C/C=C\C=C/C=C/C=C/C=C\C=C/C2C)O3)cc1 (stereo unspecified) for me? active

Can you look up the reported call for N#C/C(N)=C(C#N)/N=C/NCCO for me? inactive

Can you look up the reported call for O=[N+]([O-])c1ccc(-c2csc3nc(-c4ccccc4)nn23)cc1 for me? inactive

Can you look up the reported call for Nn1c(CCCCCCCCc2nnc(COc3ccccc3)n2N)nnc1COc1ccccc1 for me? inactive

Can you look up the reported call for CN(C)S(=O)(=O)n1ccnc1 for me? inactive

Can you look up the reported call for c1ccc(CN2CCN3CCN(CC2)CCN(Cc2ccccc2)CC3)cc1 for me? inactive

Can you look up the reported call for Cc1c(C)c(C)c(CC2(C)CSC2)c(CC2(C)CSC2)c1C for me? inactive

====

system: SN12C; test: NCI tumour cell line growth inhibition, 48 h
Active and inactive are the calls of the source. Cut-off read from the data, not from the text of the source: active = GI50 up to about 1.1 µM and inactive = higher.
Readout Type: GI50

# get_value(readout='GI50', item= CC(C)Sc1nncc(/C(N)=N/O)n1 ) > 100 µM (inactive)

# get_value(readout='GI50', item= C(=C\c1cccs1)/c1cccc(/C=C/c2cccs2)n1 ) 61 µM (inactive)

# get_value(readout='GI50', item= Cc1ccc(/N=C2\SC(=NN(C)C)S\C2=N/c2ccc(C)cc2)cc1 ) > 100 µM (inactive)

# get_value(readout='GI50', item= O=C(/C=C/c1ccccc1O)c1cccc2ccccc12 ) 44.4 µM (inactive)

# get_value(readout='GI50', item= CCN(C(=O)N[C@@H](Cc1ccccc1)C(=O)N[C@@H](CC(C)C)C(=O)NC)c1ccccc1 ) > 100 µM (inactive)

# get_value(readout='GI50', item= CCOC(=O)C1=C(C)N(CC(C)C)C2(O)C(OC)CC(=O)C3C(=O)N(c4ccccc4)C(=O)C132 (stereo unspecified) ) 36 µM (inactive)

# get_value(readout='GI50', item= COC1OC(COC(=O)NCCCCC(=O)C(F)(F)F)C(O)C(O)C1O (stereo unspecified) ) > 100 µM (inactive)

# get_value(readout='GI50', item= N=C(N)SCc1cn2ccccc2n1 ) > 100 µM (inactive)

# get_value(readout='GI50', item= O=C1CN(/N=C/c2ccc(-c3ccc(F)cc3)o2)C(=O)N1 ) 91.2 µM (inactive)

# get_value(readout='GI50', item= CC(C)(C)[Si](C)(C)Oc1cc(CO)cc2c1cc(=N)o[n+]2[O-] ) 5.56 µM (inactive)

# get_value(readout='GI50', item= CC(=O)Oc1ccc2cc(Oc3ccc(Cl)cc3)c(=O)oc2c1 ) 29.6 µM (inactive)

====

Please provide measured GI50 for the entries that follow.
system: CAKI-1; experiment: NCI tumour cell line growth inhibition, 48 h
The source made the active and inactive calls. Rule as the data show it: active = GI50 up to about 1.1 µM and inactive = higher.

# get_value(readout='GI50', item= N#CCCC[Si]12OCCN(CCO1)CCO2 ) > 100 µM (inactive)

# get_value(readout='GI50', item= O=[N+]([O-])C(=C(N1CCCCC1)N1CCCCC1)/C(Cl)=C(\Cl)[N+](=O)[O-] ) 1.19 µM (inactive)

# get_value(readout='GI50', item= O=C1O/C(=C(/Br)c2ccc(Cl)c(Cl)c2)c2ccccc21 ) > 10 µM (inactive)

# get_value(readout='GI50', item= CC(C)(C)[Si](C)(C)Oc1cc(CO)cc2c1cc(=N)o[n+]2[O-] ) > 10 µM (inactive)

# get_value(readout='GI50', item= CC(=O)Nc1ccc(NC(=O)c2c(Cl)c(Cl)c(Cl)c(Cl)c2-c2nc3ccccc3[nH]2)cc1 ) 38.7 µM (inactive)

# get_value(readout='GI50', item= Cc1ccc(S(=O)(=O)n2cc(C=O)c(-c3cn(S(=O)(=O)c4ccc(C)cc4)cc3-c3cn(S(=O)(=O)c4ccc(C)cc4)cc3C=O)c2)cc1 ) > 100 µM (inactive)

# get_value(readout='GI50', item= COC(=O)c1ccc(CCC2=CC(=O)C=CC2=O)cc1 ) 4.11 µM (inactive)

# get_value(readout='GI50', item= CC(C)(C)c1cc(/C=C(\C#N)C2=NCCO2)cc(C(C)(C)C)c1O ) 3.04 µM (inactive)

# get_value(readout='GI50', item= c1ccc([B-]23Oc4ccccc4[NH+]2c2ccccc2O3)cc1 (stereo unspecified) ) > 100 µM (inactive)

# get_value(readout='GI50', item= CSC1NNC2(C(=O)N1)c1ccccc1-c1ccccc12 (stereo unspecified) ) > 10 µM (inactive)

# get_value(readout='GI50', item= CC(C)N(C(=O)c1ccc(NCc2cc(O)ccc2O)cc1)C(C)C ) 14.2 µM (inactive)

# get_value(readout='GI50', item= CCOc1ccc(N/C(Cl)=C(Cl)\C(=C(\Nc2ccc(OCC)cc2)n2nnc3ccccc32)[N+](=O)[O-])cc1 ) 1.14 µM (inactive)

# get_value(readout='GI50', item= Cc1nnc(N)nc1/C=C\c1ccc(Cl)cc1Cl ) > 100 µM (inactive)

# get_value(readout='GI50', item= C[C@]12CC[C@H]3[C@@H](CC=C4C[C@@H](O)CC[C@@]43C)[C@@H]1C/C(=C\c1ccncc1)[C@@H]2O ) 18.1 µM (inactive)

# get_value(readout='GI50', item= CCCCSC1=N/C(=C\c2ccc(N(C)C)cc2)C(Cl)=N1 ) > 100 µM (inactive)

# get_value(readout='GI50', item= O=S(=O)(CCn1c(Sc2ccccc2)c(Sc2ccccc2)c2ccccc21)c1ccccc1 ) 55.8 µM (inactive)

# get_value(readout='GI50', item= C=CCSC1=N/C(=C\c2ccc(Cl)cc2)C(=O)N1CC=C ) 37 µM (inactive)

# get_value(readout='GI50', item= C=C1C(=O)O[C@H]2[C@H]([C@H](C)CCCC(C)=O)O[C@H]([C@@]3(C)CCC(=O)O3)C[C@@H]12 ) 18.3 µM (inactive)

# get_value(readout='GI50', item= CN1CCC(=O)/C(=C/c2ccccc2)C1 ) 17.9 µM (inactive)

# get_value(readout='GI50', item= O=[N+]([O-])/C(C(Cl)=C(Cl)Cl)=C(/Br)SCc1ccccc1 ) 2 µM (inactive)

# get_value(readout='GI50', item= CN(C)CCNc1nc2ccccc2c2c1CCCC2 ) 16.9 µM (inactive)
